Tested on: HT-29
test.method.notes: SRB colorimetric assay of cell growth and viability, HT-29
Assay type: cell-based, human
reported.conditions: 48 hours exposure, SRB; read-out: LC50 HT-29
Where a SMILES comes first, the peptide text is derived from it. Bridges are numbered along the chain shown (N, C = ends). [ ]: non-standard residue; d: D form. The star is where a group is joined. d(aIle) = CC[C@H](C)[C@@H](N)C(=O)O; d(aThr) = C[C@@H](O)[C@@H](N)C(=O)O; Hexanoyl(5-Me) = CC(C)CCCC(=O)*; Orn = NCCC[C@H](N)C(=O)O; Dhb = C/C=C(\N)C(=O)O
measured.parameter: CC50

Entry C/C=C1\NC(=O)[C@H](Cc2ccccc2)NC(=O)[C@@H](C(C)C)NC(=O)[C@@H]([C@@H](C)CC)NC(=O)[C@H](NC(=O)[C@H](NC(=O)[C@H](CCCN)NC(=O)[C@H]2CCCN2C(=O)[C@H](NC(=O)[C@@H](NC(=O)[C@H](CCCN)NC(=O)CCCC(C)C)C(C)C)C(C)C)[C@@H](C)CC)[C@@H](C)OC(=O)[C@H](C(C)C)NC1=O [Compound 57, [Orn^12, noD-Val^13]-KF] ({Hexanoyl(5-Me)}-[Orn]V[dV][dP][Orn][d(aIle)][d(aThr)][d(aIle)][dV]F[Dhb]V; ester 7-C) has what CC50?
≥ 7.18 µM
